B1: scFv; the commonest letter at each place (parent)
chain 1: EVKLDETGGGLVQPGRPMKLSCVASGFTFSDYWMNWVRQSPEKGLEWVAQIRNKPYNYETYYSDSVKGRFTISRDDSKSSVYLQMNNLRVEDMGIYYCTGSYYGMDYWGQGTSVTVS
chain 2: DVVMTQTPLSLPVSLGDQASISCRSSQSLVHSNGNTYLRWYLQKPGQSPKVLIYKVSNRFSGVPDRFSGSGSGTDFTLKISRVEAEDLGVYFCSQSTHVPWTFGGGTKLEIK

Variants of: B1
Assay: yeast surface expression (ratio to wild type); higher = more expressed
Conditions: format: scFv 4-4-20, heavy + light
measurement.name: yeast surface expression

chain 1 Y103R G109I : 0.291
chain 1 S30R D31R : 0.684
chain 1 Y102Q : 1.12
chain 1 G104C M105I : 0.349
chain 1 S101E W108G : 0.368
chain 1 T28D W36F : 0.895
chain 1 F29L N35D : 0.64
chain 1 T28C M34S : 0.611
chain 1 D106F Y107D : 0.296
chain 1 M105N G109E : 0.266
chain 1 F29N V37T : 0.668
